test: Cloud point determination (solubility in ZnBr2 solution); conditions: 0.7 M quat in 2.5M Zinc Bromide water solution
quantity: Solubility in ZnBr2 Cloud Point

The recorded Solubility in ZnBr2 Cloud Point for entry CCC[N+](CC)(CC)CC.[Br-] [Compound 5, triethylpropylammonium bromide] equals 0.7 M, 41.2 C.

The recorded Solubility in ZnBr2 Cloud Point for entry CC[N+]1(CC)CCCCC1.[Br-] [Compound 9, Diethyl Piperidinium Bromide] equals 0.7 M, 11.9 C.

The recorded Solubility in ZnBr2 Cloud Point for entry CCC[N+]1(CC)CCCCC1 [Compound 10, EthyPropyl Piperidinium Bromide] equals 0.7 M, 45.8 C.

The recorded Solubility in ZnBr2 Cloud Point for entry CC[N+](C)(C)CCOCC[N+](C)(C)CC.[Br-].[Br-] equals 0.7 M, 48.2 C.

The recorded Solubility in ZnBr2 Cloud Point for entry CCCC[N+](C)(C)CCOC.[Br-] [Compound 1, Dimethylbutylether Quat Bromide] equals 0.7 M, 29 C.

The recorded Solubility in ZnBr2 Cloud Point for entry CC[N+](C)(C)CCCC[N+](C)(C)CC.[Br-].[Br-] equals 0.7 M, 89.2 C.
